- Tested on: L1210 leukemia ip in BDF1 mice, survival T/C
- assay-explanation: NCI In Vivo Anticancer Drug Screen. Data for tumor model L1210 Leukemia (intraperitoneal) in B6D2F1 (BDF1) mice
- condition-label: endpoint: mean survival time; dose: 200.0 mg/kg/injection; schedule: Q01DX001 (ip); vehicle: saline with Tween-80; higher = longer survival
Inconclusive results and toxic doses are left out.
measured-endpoint: T/C

**Q:** Annotate the molecule `CC(=O)NCCO` with its measured T/C.
**A:** 105 % of control

**Q:** Annotate the molecule `CC(C)c1ccc2c(c1)CC[C@H]1[C@](C)(C(=O)O)CCC[C@]21C` with its measured T/C.
**A:** 105 % of control

**Q:** Annotate the molecule `CCCCS(=O)(=O)CS(=O)(=O)CC` with its measured T/C.
**A:** 91 % of control

**Q:** Annotate the molecule `O=c1c2ccccc2oc2ccccc12` with its measured T/C.
**A:** 102 % of control

**Q:** Annotate the molecule `COc1nccnn1` with its measured T/C.
**A:** 103 % of control

**Q:** Annotate the molecule `CCCCCCCCCCCCCCC(CCCCCCCCCCCCCC)C1CCCCC1` with its measured T/C.
**A:** 95 % of control

**Q:** Annotate the molecule `CCOC(=O)c1ccc(NCc2nnc3nc(N)nc(SCc4ccccc4)c3n2)cc1` with its measured T/C.
**A:** 98 % of control

**Q:** Annotate the molecule `CCCn1c(=O)cc(/C=N/Nc2ccc([N+](=O)[O-])cc2[N+](=O)[O-])c2ccccc21` with its measured T/C.
**A:** 90 % of control

**Q:** Annotate the molecule `C[CH2][Ge]([CH2]C)[CH2]C.C[CH2][Ge]([CH2]C)[CH2]C` with its measured T/C.
**A:** 90 % of control

**Q:** Annotate the molecule `O=c1ccc2cc3oc(=O)ccc3cc2o1` with its measured T/C.
**A:** 97 % of control

**Q:** Annotate the molecule `Cc1ccc2[nH]c(=S)[nH]c2c1` with its measured T/C.
**A:** 106 % of control

**Q:** Annotate the molecule `CCOC(OCC)c1nc(NC(C)=O)[nH]c(=O)c1CCCCc1ccccc1` with its measured T/C.
**A:** 88 % of control

**Q:** Annotate the molecule `CNC(=O)Oc1cccc(NC(=O)OCC#CCCl)c1` with its measured T/C.
**A:** 90 % of control
